Origin of the recorded values: patent US4288590A

For each entry below, report its concentration at 0.25 h value.
Assay: Additional mouse blood levels after intramuscular administration (Table 4)
Type: in vivo
Conditions: 10 mg/kg, mice, im, dose 10, 1/4 hour, read-out: Blood level
Procedure: […] The blood samples were collected from the orbital sinuses into heparinized capillary tubes at 15, 30, 60 and 120 minutes after administration. The antibiotic concentration was determined by the paper disc-agar diffusion method using E. coli NIHJ or S. lutea PCI 1001 as the assay organism.
Where a name gives a salt, the structure may show the parent alone.
Give bare numbers, in ng/mL.

{"molecule": "CN(C)Cc1ccc[n+](CC2=C(C(=O)[O-])N3C(=O)C(NC(=O)[C@H](NC(=O)c4cnc5cccnc5c4O)c4ccc(O)cc4)C3SC2)c1 (some centres unmarked) [BB-S 651, Hydrochloride]", "concentration at 0.25 h, ng/mL": 4300}

Alright, here's another molecule for you.
Query :: Sample CCN1CCN(C(=O)N[C@@H](C(=O)N[C@@H]2C(=O)N3C(C(=O)O)=C(CSc4nnnn4C)CS[C@H]23)c2ccc(O)cc2)C(=O)C1=O [Cefoperazone, reference compound] — what was its concentration at 0.25 h?
Result :: 5000
